Target: Perilipin-5 (Homo sapiens) + 1-acylglycerol-3-phosphate O-acyltransferase ABHD5 (Homo sapiens) (UniProt Q00G26+Q8WTS1)
Sequence (Q00G26 whole entry, looked up): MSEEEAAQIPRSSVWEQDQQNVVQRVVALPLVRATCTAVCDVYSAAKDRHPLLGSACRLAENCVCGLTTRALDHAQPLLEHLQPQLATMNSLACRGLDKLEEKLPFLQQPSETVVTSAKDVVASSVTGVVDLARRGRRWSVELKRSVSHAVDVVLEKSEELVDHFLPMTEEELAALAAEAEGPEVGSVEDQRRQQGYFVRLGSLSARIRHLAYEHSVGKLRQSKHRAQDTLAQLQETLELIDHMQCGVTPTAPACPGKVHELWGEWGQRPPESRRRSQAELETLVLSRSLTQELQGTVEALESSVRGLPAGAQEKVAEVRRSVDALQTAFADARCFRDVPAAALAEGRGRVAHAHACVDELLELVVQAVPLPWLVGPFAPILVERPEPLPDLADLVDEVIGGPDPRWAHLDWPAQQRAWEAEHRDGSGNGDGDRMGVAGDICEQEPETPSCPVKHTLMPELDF
Sequence (Q8WTS1 whole entry, looked up): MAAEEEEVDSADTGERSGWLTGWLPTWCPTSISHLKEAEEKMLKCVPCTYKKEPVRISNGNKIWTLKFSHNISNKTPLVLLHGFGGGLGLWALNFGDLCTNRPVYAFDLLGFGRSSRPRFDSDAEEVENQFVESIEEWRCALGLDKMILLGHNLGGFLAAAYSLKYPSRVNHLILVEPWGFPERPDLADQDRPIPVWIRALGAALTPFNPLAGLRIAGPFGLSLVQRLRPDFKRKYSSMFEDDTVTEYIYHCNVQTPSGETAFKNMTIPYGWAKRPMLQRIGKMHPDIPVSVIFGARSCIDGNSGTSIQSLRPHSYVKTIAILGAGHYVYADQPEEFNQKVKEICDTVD
Experiment: blockers of ABHD5 binding to perilipin-5 – cell lysate, luminescence, proteins expressed in HEK293T, late-stage follow-up (AID 651759)
Settings: ABHD5-PLIN5 interaction
Activity calls are given as the source filed them. How the calls were made is not given here.
measure: IC50

// solved cases for IC50 follow
>  <compound>
COc1ccccc1-c1cc(C(=O)NC2CCN(C)CC2)c2ccc(Cl)c(C)c2n1

>  <result>
> 13.3 µM (inactive)

$$$$
>  <compound>
CC1CCN(S(=O)(=O)c2ccc(NC(=O)Cc3ccccc3)cc2)CC1

>  <result>
7.89 µM

$$$$
>  <compound>
CCOC(=O)c1c(NC(=O)/C=C/C(=O)O)sc(C)c1-c1ccc(C(C)(C)C)cc1

>  <result>
4.5 µM

$$$$
>  <compound>
CC(=O)Oc1ccc(C23c4ccccc4C2(OC(C)=O)c2cc(OC(C)=O)ccc23)cc1 (stereo not drawn)

>  <result>
> 39.8 µM (inactive)

$$$$

Q: Record request: IC50 value, item CC1CCN(S(=O)(=O)c2ccc(NC(=O)Cc3cccs3)cc2)CC1
A: 9 µM

Q: CC(=O)Nc1ccc(S(=O)(=O)N2c3ccc(F)cc3CCC2C)cc1 (stereo not drawn) , same question.
A: inactive

* * *

Biological target: Perilipin-5 (Homo sapiens) + 1-acylglycerol-3-phosphate O-acyltransferase ABHD5 (Homo sapiens) (UniProt Q00G26+Q8WTS1)
Experiment: blockers of ABHD5 binding to perilipin-5 – cell lysate, luminescence, proteins expressed in HEK293T, late-stage follow-up (AID 651759)
Conditions: ABHD5-PLIN5 interaction
Activity calls are given as the source filed them. How the calls were made is not given here.
Give one outcome, nothing more. List: active, inactive

Previously resolved entries follow.
>  <compound>
CCN(CC)CCNC(=O)c1ccc(NC(=O)c2cn(-c3ccccc3)nc2-c2cccs2)cc1

>  <assigned.category>
inactive

$$$$
>  <compound>
Cc1nc2c(o1)CCc1ccccc1C2N1CCN(C)CC1 (centres undefined)

>  <assigned.category>
active

$$$$
>  <compound>
COc1cc(C)c2sc3ccccc3c(=O)c2c1NCCN(C)C

>  <assigned.category>
inactive

$$$$
>  <compound>
CCOc1cc(N)c(Cl)cc1C(=O)NCC1CN(Cc2ccc(F)cc2)CCO1 (centres undefined)

>  <assigned.category>
active

$$$$
>  <compound>
CC(CCc1ccco1)NC(=O)CCc1nnc2ccc(NCc3ccccc3Cl)nn12 (centres undefined)

>  <assigned.category>
active

$$$$

Q: Hi, sorry to bother you, what did the test record for O=c1[nH]c(C2CCN(S(=O)(=O)c3ccc(F)cc3)CC2)nc2c1nnn2Cc1ccc2c(c1)OCCO2 ?
A: inactive

Q: Cc1cc(C)c(NC(=O)CN2CCN3CCCC3C2)c(C)c1 (centres undefined) , same question.
A: active

Q: CCCCOC(=O)Nc1cc(C(=O)OC)ccc1C(=O)OC , same question.
A: active

* * *

Biological target: Perilipin-5 (Homo sapiens) + 1-acylglycerol-3-phosphate O-acyltransferase ABHD5 (Homo sapiens) (UniProt Q00G26+Q8WTS1)
Experiment: blockers of ABHD5 binding to perilipin-5 – cell lysate, luminescence, proteins expressed in HEK293T, late-stage follow-up (AID 651759)
Details: ABHD5-PLIN5 interaction
Calls of active or inactive are those of the source. The rule behind the calls is not given here.
Give one outcome, nothing more. List: active, inactive

>  <molecule>
CCCNC(=O)Nc1ccc2c(c1)N(C)C(=O)c1ccccc1S2

>  <assigned.category>
active

$$$$
>  <molecule>
COc1cc(OC)cc(C(=O)NC(=S)N(Cc2ccccc2)C(C)C)c1

>  <assigned.category>
active

$$$$
>  <molecule>
CCN(CC)CCC(C)OC(c1ccccc1)c1ccccc1 (configuration not stated)

>  <assigned.category>
active

$$$$
>  <molecule>
CN(C)CCN(Cc1ccco1)c1ccccn1

>  <assigned.category>
inactive

$$$$
>  <molecule>
Cc1cc(C)c2nc(NNC(=O)c3ccc(S(=O)(=O)N4CCCC(C)C4)cc3)sc2c1 (configuration not stated)

>  <assigned.category>
active

$$$$

Q: Hi, sorry to bother you, what did the test record for CC(C)c1ccc(N2C=Nc3ccc(C(C)C)cc3C2)cc1 ?
A: active

Q: C=C[C@]1(C)C[C@@H](OC(=O)CSCCN(CC)CC)[C@]2(C)C(C)CC[C@]3(CCC(=O)[C@H]32)[C@@H](C)[C@@H]1O (some centres not stated) , same question.
A: active

Q: Cc1ccc2nc3cc([N+](=O)[O-])cc([N+](=O)[O-])c3cc2c1 , same question.
A: active

Q: CCOC(=O)c1c(NC(C)=O)sc2c1CCC(C=O)=C2Sc1ccccc1 , same question.
A: active
